Tested on: CP237
test.name: qHTS profiling for inhibitors of Plasmodium falciparum proliferation (AID 504749); also: nearly all actives have a fitted effect of over 60% in size
condition.context: P. falciparum in erythrocytes, SYBR Green DNA, 72 h; series mostly up to 28.7 µM
Procedure: NIH National Institute of Allergy and Infectious Diseases [NIAID] NIH Chemical Genomics Center [NCGC] […] Because mature erythrocytes lack DNA, only Plasmodium-derived DNA is detected. NCGC Assay Protocol Summary: The SYBR Green viability assay was adapted from a method described previously (Plouffe et al., 2008). […] The following morning, fluorescence intensity at 485(14) nm excitation and 535(25) nm emission wavelengths was measured on an EnVision (Perkin Elmer) plate reader. […]
Inconclusive results are not listed. Active and inactive are the calls of the source. Calls follow the shape of the dose curve; as a rule, active = well fitted inhibition curve with a large enough effect; inconclusive = small, poorly fitted or top-dose-only effect; inactive = flat fitted curve, though single readings scatter. Peptide text beside a SMILES is read from it.
Outcomes you can answer with include only these: 1.0 (active), 0.0 (inactive)

*Q* // outcome(item) with item = `c1ccc2[nH]c(-c3cscn3)nc2c1`
*A* 0.0

*Q* // outcome(item) with item = `Cc1cc2c(s1)Nc1ccccc1N=C2N1CCN(C)CC1`
*A* 0.0

*Q* // outcome(item) with item = `COC1=C(OC)C(=O)C(CCCCCCCCCCO)=C(C)C1=O`
*A* 0.0

*Q* // outcome(item) with item = `CCCc1cc(=O)[nH]c(=S)[nH]1`
*A* 0.0

*Q* // outcome(item) with item = `Nc1nc(Cl)nc2c1ncn2[C@H]1C[C@H](O)[C@@H](CO)O1`
*A* 0.0

*Q* // outcome(item) with item = `CNC[C@@H](O)[C@@H](O)[C@H](O)[C@H](O)CO`
*A* 0.0

*Q* // outcome(item) with item = CC(S)C(=O)NCC(=O)O (centres undefined)
*A* 0.0

*Q* // outcome(item) with item = `Cn1c(NCCN(CCO)CCCc2ccc([N+](=O)[O-])cc2)cc(=O)n(C)c1=O`
*A* 0.0

*Q* // outcome(item) with item = `COc1cc(OC)c(C(=O)CCCN2CCCC2)c(OC)c1`
*A* 0.0

*Q* // outcome(item) with item = `CCCCCCCCOc1ccccc1C(=O)Nc1ccc(C(=O)OCC[N+](C)(CC)CC)cc1`
*A* 1.0

*Q* // outcome(item) with item = COc1ccc(C2(C#N)CCC(C(=O)O)CC2)cc1OC1CCCC1 (centres undefined)
*A* 0.0

*Q* // outcome(item) with item = COC(=O)[C@H](Cc1ccccc1)NC(=O)[C@@H](N)CC(=O)O (H-Asp-Phe-OMe)
*A* 0.0

*Q* // outcome(item) with item = `CCN(CC)CCOc1ccc(Cc2ccccc2)cc1`
*A* 0.0

*Q* // outcome(item) with item = COC(=O)C1=C(C)NC(C)=C(C(=O)OCCCN2CCC(c3ccccc3)(c3ccccc3)CC2)C1c1cccc([N+](=O)[O-])c1 (centres undefined)
*A* 1.0

*Q* // outcome(item) with item = `N=C(N=C(N)N)N1CCOCC1`
*A* 0.0

*Q* // outcome(item) with item = `CC[C@]1(O)C[C@H]2CN(CCc3c([nH]c4ccccc34)[C@@](C(=O)OC)(c3cc4c(cc3OC)N(C=O)[C@H]3[C@@](O)(C(=O)OC)[C@H](OC(C)=O)[C@]5(CC)C=CCN6CC[C@]43[C@@H]65)C2)C1`
*A* 1.0

*Q* // outcome(item) with item = `CC1(C)NC(=O)N(c2ccc([N+](=O)[O-])c(C(F)(F)F)c2)C1=O`
*A* 0.0

*Q* // outcome(item) with item = `CCCCc1ccc2nc(NC(=O)OC)[nH]c2c1`
*A* 0.0

*Q* // outcome(item) with item = `Nc1cc(C(Cl)=C(Cl)Cl)c(S(N)(=O)=O)cc1S(N)(=O)=O`
*A* 0.0

*Q* // outcome(item) with item = `CCCOc1ccc2nc(NC(=O)OC)[nH]c2c1`
*A* 0.0

*Q* // outcome(item) with item = `O=C(O)c1cccc(-c2noc(-c3ccccc3F)n2)c1`
*A* 0.0

*Q* // outcome(item) with item = `CC1(C)CCC(C)(C)c2cc(NC(=O)c3ccc(C(=O)O)cc3)ccc21`
*A* 0.0

*Q* // outcome(item) with item = `Oc1ccc(OCc2ccccc2)cc1`
*A* 0.0

*Q* // outcome(item) with item = `C[C@H](Cn1cnc2c(N)ncnc21)OCP(=O)(O)O`
*A* 0.0

*Q* // outcome(item) with item = `O=C(O)c1cc(=O)c2c(OCC(O)COc3cccc4oc(C(=O)O)cc(=O)c34)cccc2o1`
*A* 0.0

*Q* // outcome(item) with item = CCC(C)(Oc1ccc(C2(c3ccc(OC(C)(CC)C(=O)O)cc3)CCCCC2)cc1)C(=O)O (centres undefined)
*A* 0.0

*Q* // outcome(item) with item = CCCCN(CCCC)CCC(O)c1cc2c(Cl)cc(Cl)cc2c2cc(C(F)(F)F)ccc12 (centres undefined)
*A* 1.0

*Q* // outcome(item) with item = C[Se]CCC(N)C(=O)O (centres undefined)
*A* 0.0

*Q* // outcome(item) with item = `CC(C)(S)[C@@H](N)C(=O)O`
*A* 0.0

*Q* // outcome(item) with item = `Nc1ccc(S(N)(=O)=O)cc1`
*A* 0.0

*Q* // outcome(item) with item = `CN1C(C(=O)Nc2ccccn2)=C(O)c2sccc2S1(=O)=O`
*A* 0.0

*Q* // outcome(item) with item = Nc1ccn([C@@H]2O[C@H](CO)[C@@H](O)C2O)c(=O)n1 (some centres undefined)
*A* 0.0

*Q* // outcome(item) with item = `CCCCCCCCCCCCCCCCCCCCCCO`
*A* 0.0

*Q* // outcome(item) with item = Cc1c(OCC(F)(F)F)ccnc1CS(=O)c1nc2ccccc2[nH]1 (centres undefined)
*A* 0.0

This collection of values is drawn from PubChem BioAssay (NCATS).
